Every entry's value here was drawn from patent US20230381229A1.

# measured.target: PD-1-Fc (Homo sapiens)
# Sequence (chain, as listed by the source limits assumed): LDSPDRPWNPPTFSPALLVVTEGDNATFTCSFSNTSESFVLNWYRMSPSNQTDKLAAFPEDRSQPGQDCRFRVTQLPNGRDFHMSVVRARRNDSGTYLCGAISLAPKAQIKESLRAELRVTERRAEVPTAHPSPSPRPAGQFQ
# method.summary: ForteBio, PD-1-Fc
measured.property: Fortebio binding to PD-1-Fc Response Units (Response Units)

Sample records with Fortebio binding to PD-1-Fc Response Units (Response Units):
[ask] Form field: reported Fortebio binding to PD-1-Fc Response Units (Response Units) of variant PD-L2 IgV-Fc I13V, H15Q, R76G, I85F (Fc fusion) LFTVTVPKELYIVEQGSNVTLECNFDTGSHVNLGAITASLQKVENDTSPHRERATLLEEQLPLGKASFHIPQVQVGDEGQYQCIFIYGVAWDYKYLTLKVKA
[reply] -0.04

[ask] Consider the binder shown here: variant PD-L2 IgV-Fc H15Q, V89D (Fc fusion) LFTVTVPKELYIIEQGSNVTLECNFDTGSHVNLGAITASLQKVENDTSPHRERATLLEEQLPLGKASFHIPQVQVRDEGQYQCIIIYGDAWDYKYLTLKVKA What is its recorded Fortebio binding to PD-1-Fc Response Units (Response Units)?
[reply] 0.31

New cases:
[ask] # Fortebio binding to PD-1-Fc Response Units (Response Units) lookup, item variant PD-L2 IgV-Fc E44D (Fc fusion) LFTVTVPKELYIIEHGSNVTLECNFDTGSHVNLGAITASLQKVDNDTSPHRERATLLEEQLPLGKASFHIPQVQVRDEGQYQCIIIYGVAWDYKYLTLKVKA
[reply] -0.006

[ask] Would you mind telling me what Fortebio binding to PD-1-Fc Response Units (Response Units) value was observed for variant PD-L2 IgV-Fc H15Q, T47A (Fc fusion) LFTVTVPKELYIIEQGSNVTLECNFDTGSHVNLGAITASLQKVENDASPHRERATLLEEQLPLGKASFHIPQVQVRDEGQYQCIIIYGVAWDYKYLTLKVKA ?
[reply] 0.016

[ask] What Fortebio binding to PD-1-Fc Response Units (Response Units) value was documented for this binder, variant PD-L2 IgV-Fc V89D (Fc fusion) LFTVTVPKELYIIEHGSNVTLECNFDTGSHVNLGAITASLQKVENDTSPHRERATLLEEQLPLGKASFHIPQVQVRDEGQYQCIIIYGDAWDYKYLTLKVKA ?
[reply] 0.005
